assay: amyloid nucleation score (Sup35N fusion, yeast selection) (log enrichment); library NNK1; higher = more nucleation; inactive = no reads after selection;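 further: zero at mode of non-aggregating sequences after 7 days selection at 30°C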
# amyloid nucleation score binned as label 0: < -0.1; label 1: ≥ -0.1 and < 0.7; label 2: ≥ 0.7

For orientation, consider the following solved cases.
Substance: NKRVHWLSGRLWIWYHWWVI
Label Class: label 0
--
Substance: YVSYRIVLGRMPGMKHSRKR
Label Class: label 2
--
Substance: MNPTFILRTGSRGGDYWS
Label Class: label 1
--
Substance: VRKNSERGVK
Label Class: label 0
--
Substance: FNITYCFRSFSTSVDNGF
Label Class: label 1
--
Substance: SVSVQERTSGVYSHVSSENY
Label Class: label 0
--
Substance: NFLMKWCEINTCLLVSFSYW
Label Class: label 2
--
Substance: VWSGEE
Label Class: label 0
--
Substance: SNKRNYRLE
Label Class: label 1
--
Substance: GRLVVGIREGIIS
Label Class: label 1

Task item: Entry `VRTYWTYANWIFMYKKRAQA` belongs to which category?
Reply: label 0

Task item: Now try `ARHRDALFRCEDMFGKVQYS` .
Reply: label 0

Task item: Please give the result for `VSPGVFMGVLLMALKFFQAK` too.
Reply: label 0

Task item: Now give it for `WPCKAFFSSAGLRYGVNLA` too.
Reply: label 0

Task item: Do the same for `SSLASMASVDRKNHRGSGEG` please
Reply: label 2

====

test: amyloid nucleation score (Sup35N fusion, yeast selection) (log enrichment); library NNK3; higher = more nucleation; inactive = no reads after selection
Measure: amyloid nucleation score

Substance: DIRSGTLC
amyloid nucleation score: inactive
--
Substance: FSIWKV
amyloid nucleation score: inactive
--
Substance: VKTNVCTTYGHY
amyloid nucleation score: inactive
--
Substance: CSTFNFRGNTIHLNLCWEVI
amyloid nucleation score: 0.424
--
Substance: DDRDSNSVTLDNSWSYSITV
amyloid nucleation score: inactive
--
Substance: FIGQGTNWYPYSVGANVSHH
amyloid nucleation score: -0.241
--
Substance: PVLARYL
amyloid nucleation score: inactive
--
Substance: TYRCYELVGDTVC
amyloid nucleation score: inactive

Task item: # query: amyloid nucleation score of entry `EAVKWPHMILPHCTHMWIYW`
Reply: inactive

Task item: Also check `KRDWHLVTMG`
Reply: -0.134

====

test: amyloid nucleation score (Sup35N fusion, yeast selection) (log enrichment); library NNK2; higher = more nucleation; inactive = no reads after selection
Assign true whenever amyloid nucleation score does not fall below 0.8; assign false whenever it does.

Query Sequence: FIMMDRAGSMIYSKGTRNIR
Label Class: true

Task item: Hello, I need to know if `VHNQGFLFL` has measured amyloid nucleation score not below 0.8. Thanks!
Reply: false

====

experiment: amyloid nucleation score (Sup35N fusion, yeast selection) (log enrichment); library NNK2; higher = more nucleation; inactive = no reads after selection
Measure: amyloid nucleation score
Answer with a number only.

Query Sequence: GCVTSGMLMTLIIH
amyloid nucleation score: -0.218

Task item: I'd like to know its amyloid nucleation score. The sequence in question is `ASAAYWASVHICPNLSKRKL`
Reply: 0.328

Task item: Next entry: `GSGIIHTVGLGV`
Reply: -0.153

====

experiment: amyloid nucleation score (Sup35N fusion, yeast selection) (log enrichment); library NNK2; higher = more nucleation; inactive = no reads after selection
Dear colleague, classification is by amyloid nucleation score, with ranges listed here: range 1 (below -0.003), range 2 (-0.003 to below 0.9), range 3 (0.9 or more)

Some solved entries appear below for comparison.
Query Sequence: KSPCIVQTTILYNYMAVVIS
Label Class: range 3
--
Query Sequence: CMRVVDGCFYFLDWSGVTDF
Label Class: range 1
--
Query Sequence: YLHHIRCGYWVVVFVSTGSA
Label Class: range 1
--
Query Sequence: GDFSFCTHLLSYNLRGWPVV
Label Class: range 2

Task item: Pick a category. Item: `YGRGWHCTLYCIN`
Reply: range 2

Task item: Follow-up entry: `YSAPCGGDGESWDGFKMMEH`
Reply: range 2

Task item: Now this one: `LMMKKTGCTQFISRYLVRIY`
Reply: range 1

Task item: Try `SLVNYPMKVIGVVRKFW` next.
Reply: range 3

Reference for the values: the supplement of paper PMC12042874
